Target: ULK1 (Homo sapiens)
Sequence (O75385 whole entry, looked up): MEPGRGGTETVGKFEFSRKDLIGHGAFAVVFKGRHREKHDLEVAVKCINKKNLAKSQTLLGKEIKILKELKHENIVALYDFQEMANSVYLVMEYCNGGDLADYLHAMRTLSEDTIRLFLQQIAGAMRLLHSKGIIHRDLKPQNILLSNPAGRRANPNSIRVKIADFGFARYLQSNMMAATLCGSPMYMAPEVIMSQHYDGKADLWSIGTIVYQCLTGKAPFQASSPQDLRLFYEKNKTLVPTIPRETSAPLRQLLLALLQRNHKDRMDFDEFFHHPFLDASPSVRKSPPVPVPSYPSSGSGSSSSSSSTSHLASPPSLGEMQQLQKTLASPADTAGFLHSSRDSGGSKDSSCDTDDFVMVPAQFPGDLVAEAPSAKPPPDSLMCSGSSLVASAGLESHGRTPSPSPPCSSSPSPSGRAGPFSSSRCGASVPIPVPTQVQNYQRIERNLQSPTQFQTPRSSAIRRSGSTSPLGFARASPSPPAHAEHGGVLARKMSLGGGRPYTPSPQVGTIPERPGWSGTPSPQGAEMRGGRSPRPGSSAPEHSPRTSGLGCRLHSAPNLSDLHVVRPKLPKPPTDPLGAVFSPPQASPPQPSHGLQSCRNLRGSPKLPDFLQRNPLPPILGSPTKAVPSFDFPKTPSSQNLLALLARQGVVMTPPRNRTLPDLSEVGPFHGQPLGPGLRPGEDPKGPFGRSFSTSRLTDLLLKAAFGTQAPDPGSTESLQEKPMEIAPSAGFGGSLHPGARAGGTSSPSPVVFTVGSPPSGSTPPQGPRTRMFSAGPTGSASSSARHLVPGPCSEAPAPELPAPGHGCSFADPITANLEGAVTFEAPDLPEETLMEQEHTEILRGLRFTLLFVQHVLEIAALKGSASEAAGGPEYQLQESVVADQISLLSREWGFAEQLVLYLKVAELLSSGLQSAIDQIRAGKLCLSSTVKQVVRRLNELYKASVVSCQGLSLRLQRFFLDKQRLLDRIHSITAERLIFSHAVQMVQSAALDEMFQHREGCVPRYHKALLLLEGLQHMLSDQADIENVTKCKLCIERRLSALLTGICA
pIC50: −log10 of the molar value.
observed_property: pIC50

Any idea what pIC50 came out for CC1(Nc2nc(Nc3ccc4c(c3)CCC(=O)N4)ncc2C(F)(F)F)COC1 [Example 220a] on ULK1 (Homo sapiens)?
< 5.70

Could you do the same for O=C1CCCc2cc(Nc3ncc(C(F)(F)F)c(NC4CC4)n3)ccc21 [Example 301] , please?
> 6.70

Could you do the same for O=C(Nc1ccc(Nc2ncc(C(F)(F)F)c(NC3CC3)n2)cc1)C1CC1 [Example 312] , please?
> 6.70

Could you do the same for CNC(=O)c1ccccc1Oc1ccnc(Nc2cc(OC)c(OC)c(OC)c2)n1 [Example 239] , please?
< 5.70

Could you do the same for CNC(=O)c1ccccc1Oc1nc(Nc2cc(OC)c(OC)c(OC)c2)ncc1Cl [Example 234a] , please?
< 5.70

Could you do the same for CNS(=O)(=O)c1ccccc1Nc1nc(Nc2cc(OC)c(OC)c(OC)c2)ncc1Br [Example 237] , please?
5.70 to 6.70

Could you do the same for FC(F)(F)c1cnc(N2CCCC2c2cccnc2)nc1NC1CC1 (stereo not drawn) [Example 228] , please?
< 5.70

Could you do the same for CC1CN1c1nc(Nc2ccc3c(c2)CCC(=O)N3)ncc1C(F)(F)F (stereo not drawn) [Example 183a] , please?
< 5.70

Could you do the same for O=C1CCc2cc(Nc3ncc(C(F)(F)F)c(NCCO)n3)ccc2N1 [Example 197] , please?
> 6.70

Could you do the same for FC(F)(F)c1cnc(Nc2ccc3[nH]ccc3c2)nc1NC1CC1 [Example 206] , please?
> 6.70

Could you do the same for COc1cc(Nc2ncc(Br)c(Nc3ccccc3CO)n2)cc(OC)c1OC [Example 303] , please?
> 6.70

Could you do the same for CC(C)(C)OC(=O)NCCCNc1nc(Nc2ccc3c(c2)CCC(=O)N3)ncc1C(F)(F)F [Example 310] , please?
> 6.70

Could you do the same for CN(c1nc(Nc2ccc3c(c2)CCC(=O)N3)ncc1C(F)(F)F)C1CC1 [Example 202] , please?
> 6.70

Could you do the same for CNC(=O)c1ccccc1Nc1nc(Nc2cnc3[nH]ccc3c2)ncc1C(F)(F)F [Example 201] , please?
> 6.70

Could you do the same for FC(F)(F)c1cnc(Nc2cnc3ccccc3c2)nc1NC1CC1 [Example 275] , please?
> 6.70

Could you do the same for CCONc1nc(Nc2ccc3c(c2)CCC(=O)N3)ncc1C(F)(F)F [Example 219] , please?
< 5.70

Could you do the same for FC(F)(F)c1cnc(Nc2cnc3[nH]ccc3c2)nc1NC1COC1 [Example 194] , please?
> 6.70

Could you do the same for O=C1CCc2cc(Nc3ncc(C(F)(F)F)c(Nc4ccc5[nH]ncc5c4)n3)ccc2N1 [Example 185] , please?
> 6.70

###

Molecular target: ULK1 (Homo sapiens)
For each entry below, report its IC50 value.

# lookup: IC50 of O=c1[nH]c2ccc(Nc3ncc(Br)c(NC4CC4)n3)cc2[nH]1 [Example 236]
< 200 nM

Could you do the same for O=c1[nH]c2ncc(Nc3nc(Nc4ccc5c(c4)OCCO5)ncc3Br)cc2o1 [Example 192] , please?
< 200 nM

Could you do the same for Nc1nc(Nc2cnc3[nH]ccc3c2)ncc1C(F)(F)F [Example 217] , please?
> 2000 nM

Could you do the same for COC(=O)CNc1nc(Nc2ccc3c(c2)CCC(=O)N3)ncc1C(F)(F)F [Example 218] , please?
> 2000 nM

Could you do the same for COC(=O)Nc1ccccc1Oc1nc(Nc2cc(OC)c(OC)c(OC)c2)ncc1Br [Example 296] , please?
< 200 nM

Could you do the same for O=C1CCc2cc(Nc3ncc(C(F)(F)F)c(N4CC(F)(F)C4)n3)ccc2N1 [Example 215] , please?
< 200 nM

Could you do the same for COc1cc(Nc2ncc(Br)c(Oc3ccccc3C(F)(F)F)n2)cc(OC)c1OC [Example 299] , please?
< 200 nM

Could you do the same for O=C1CCc2cc(Nc3ncc(C(F)(F)F)c(NCC4CC4)n3)ccc2N1 [Example 216] , please?
< 200 nM

Could you do the same for Nc1ccc(Nc2ncc(C(F)(F)F)c(NC3CC3)n2)cc1 [Example 304a] , please?
< 200 nM

Could you do the same for CCC(=O)c1ccccc1Oc1nc(Nc2cc(OC)c(OC)c(OC)c2)ncc1Br [Example 260] , please?
< 200 nM

Could you do the same for C[C@@H]1COCCN1c1nc(Nc2ccc3c(c2)CCC(=O)N3)ncc1C(F)(F)F [Example 247] , please?
< 200 nM

Could you do the same for FC(F)(F)c1cnc(Nc2ccc3c(c2)OCCCO3)nc1NC1CC1 [Example 190] , please?
< 200 nM

Could you do the same for O=C(C1CC1)N(C(=O)C1CC1)c1ccc(Nc2ncc(C(F)(F)F)c(NC3CC3)n2)cc1 [Example 311] , please?
< 200 nM

Could you do the same for FC(F)(F)c1cnc(Nc2ccc3nc[nH]c3c2)nc1Nc1cc(C2CCC2)[nH]n1 [Example 297] , please?
< 200 nM

Could you do the same for Oc1ccc(CCNc2ncc(C(F)(F)F)c(NC3CC3)n2)cc1 [Example 246] , please?
200 to 2000 nM

Could you do the same for COc1cc(Nc2ncc(Br)c(NC3CC3)n2)cc(OC)c1OC [Example 186] , please?
< 200 nM

Could you do the same for FC(F)(F)c1cnc(Nc2ccc3ncccc3c2)nc1NC1CC1 [Example 264] , please?
< 200 nM

Could you do the same for FC(F)(F)c1cnc(NCc2cccc3ccccc23)nc1NC1CC1 [Example 262] , please?
> 2000 nM

Could you do the same for FC(F)(F)c1cnc(Nc2ccc3c(c2)OCO3)nc1NC1CC1 [Example 213] , please?
< 200 nM

Could you do the same for COC(=O)[C@@H]1CCCN1c1nc(Nc2ccc3c(c2)CCC(=O)N3)ncc1C(F)(F)F [Example 227] , please?
200 to 2000 nM

Could you do the same for FC1(F)Oc2ccc(Nc3ncc(C(F)(F)F)c(NC4CC4)n3)cc2O1 [Example 258] , please?
> 2000 nM

Could you do the same for Nc1nc(Nc2ccc3c(c2)CCC(=O)N3)ncc1C(F)(F)F [Example 209] , please?
200 to 2000 nM

Could you do the same for O=C1CCc2cc(Nc3ncc(C(F)(F)F)c(N(CCO)CCO)n3)ccc2N1 [Example 212a] , please?
> 2000 nM

Could you do the same for FC(F)(F)c1cnc(Nc2ccc3nn[nH]c3c2)nc1NC1CC1 [Example 188] , please?
< 200 nM

Could you do the same for O=C1CCc2cc(Nc3ncnc(NC4CC4)n3)ccc2N1 [Example 225] , please?
> 2000 nM

Could you do the same for O=C1CCc2cc(Nc3ncc(C(=O)O)c(NC4CC4)n3)ccc2N1 [Example 286] , please?
> 2000 nM

Could you do the same for FC(F)(F)c1cnc(Nc2ccc3ncoc3c2)nc1NC1CC1 [Example 208a] , please?
< 200 nM

Could you do the same for O=C1CCc2cc(Nc3ncc(C(F)(F)F)c(NC4COC4)n3)ccc2N1 [Example 193] , please?
> 2000 nM

Could you do the same for O=C1CCc2cc(Nc3ncc(C(F)(F)F)c(Nc4cc(C5CCC5)[nH]n4)n3)ccc2N1 [Example 271] , please?
< 200 nM

Could you do the same for FC(F)(F)c1cnc(Nc2ccnnc2)nc1NC1CC1 [Example 221a] , please?
< 200 nM

###

Target: ULK1
Assay: ULK1 inhibition assay (Table 1)
Conditions: * = tested as a mixture of regioisomers
pIC50: −log10 of the molar value.
For each entry below, report its pIC50 value.

# lookup: pIC50 of CNC(=O)CCOc1nc(Nc2cc(OC)c(OC)c(OC)c2)ncc1Br [Example 316]
> 6.70

Could you do the same for CC(Cl)CNc1nc(Nc2ccc3c(c2)CCC(=O)N3)ncc1C(F)(F)F (centres unmarked) [Example 183b] , please?
> 6.70

Could you do the same for OC1Nc2ccc(Nc3ncc(C(F)(F)F)c(NC4CC4)n3)cc2O1 (centres unmarked) [Example 208b] , please?
> 6.70

Could you do the same for O=C1CCc2cc(Nc3ncc(C(F)(F)F)c(OCCNCCO)n3)ccc2N1 [Example 212b] , please?
5.70 to 6.70

Could you do the same for CN(c1ccccc1)c1ncc(C(F)(F)F)c(Nc2ccc3c(c2)CCC(=O)N3)n1 [Example 184b] , please?
> 6.70

Could you do the same for FC(F)(F)c1cnc(Nc2cccnc2)nc1NC1CC1 [Example 196] , please?
< 5.70

Could you do the same for COc1cc(Nc2ncc(Br)c(Oc3ccccc3C(N)=O)n2)cc(OC)c1OC [Example 249] , please?
> 6.70

Could you do the same for COc1cc(Nc2ncc(Br)c(Oc3ccccc3NC(=O)C3CC3)n2)cc(OC)c1OC [Example 281] , please?
> 6.70

Could you do the same for COc1cc(Nc2ncc(Br)c(Oc3ccccc3)n2)cc(OC)c1OC [Example 266] , please?
> 6.70

Could you do the same for COc1cc(Nc2ncc(Br)c(Nc3ccccc3)n2)cc(OC)c1OC [Example 293] , please?
> 6.70

Could you do the same for CNC(=O)c1cccc(Oc2nc(Nc3ccc4c(c3)CCC(=O)N4)ncc2Br)c1 [Example 268] , please?
5.70 to 6.70

Could you do the same for CN(C)c1nc(Nc2ccc3c(c2)CCC(=O)N3)ncc1C(F)(F)F [Example 220b] , please?
> 6.70

Could you do the same for O=C1CCc2cc(Nc3nc(NC4CC4)c4ccccc4n3)ccc2N1 [Example 263] , please?
< 5.70

Could you do the same for N=c1ccon1-c1ncc(C(F)(F)F)c(NC2CC2)n1 [Example 214b] , please?
< 5.70

Could you do the same for CC(CCl)Nc1nc(Nc2ccc3c(c2)CCC(=O)N3)ncc1C(F)(F)F (centres unmarked) [Example 183c] , please?
< 5.70

Could you do the same for CN(c1ccccc1)c1nc(Nc2ccc3c(c2)CCC(=O)N3)ncc1C(F)(F)F [Example 184a] , please?
5.70 to 6.70

Could you do the same for CNC(=O)c1cccc(Oc2nc(Nc3cc(OC)c(OC)c(OC)c3)ncc2Br)c1 [Example 242] , please?
5.70 to 6.70

Could you do the same for O=C1NC(=O)c2cc(Nc3ncc(C(F)(F)F)c(NC4CC4)n3)ccc21 [Example 314] , please?
> 6.70

Could you do the same for c1cc(NC2CC2)nc(Nc2cnc3[nH]ccc3c2)n1 [Example 204] , please?
< 5.70

Could you do the same for O=C1CCc2cc(Nc3ncc(C(F)(F)F)c(Oc4ccccc4)n3)ccc2N1 [Example 300a] , please?
< 5.70

Could you do the same for c1cc(NC2CC2)nc(Nc2ccc3c(c2)OCCO3)n1 [Example 224] , please?
< 5.70

Could you do the same for O=c1[nH]c2ccc(Nc3nccc(NC4CC4)n3)cc2[nH]1 [Example 232] , please?
< 5.70

Could you do the same for COc1cc(Nc2ncc(Br)c(Nc3ccccc3O)n2)cc(OC)c1OC [Example 317] , please?
> 6.70

Could you do the same for O=C1CCc2cc(Nc3ncc(C(F)(F)F)c(NC4CN(c5nc(Nc6ccc7c(c6)CCC(=O)N7)ncc5C(F)(F)F)C4)n3)ccc2N1 [Example 198b] , please?
< 5.70

Could you do the same for FC(F)(F)c1cnc(Nc2ccc(Nc3ncc(C(F)(F)F)c(NC4CC4)n3)cc2)nc1NC1CC1 [Example 304b] , please?
< 5.70

Could you do the same for O=C1CCc2cc(Nc3nc(Oc4ccccc4)ncc3C(F)(F)F)ccc2N1 [Example 300b] , please?
< 5.70

Could you do the same for N#Cc1cnc(NC2CC2)nc1Nc1ccc2c(c1)CCC(=O)N2 [Example 287] , please?
< 5.70

Could you do the same for COc1cc(Nc2ncc(Br)c(Oc3ccccc3C(=O)N(C)C)n2)cc(OC)c1OC [Example 245] , please?
> 6.70

Could you do the same for FC(F)(F)c1cnc(Nc2ccc3c(c2)CCNC3)nc1NC1CC1 [Example 309] , please?
> 6.70

Could you do the same for FC(F)(F)c1cnc(Nc2cncnc2)nc1NC1CC1 [Example 203] , please?
> 6.70

Could you do the same for COc1cc(Nc2ncc(Br)c(Oc3ccccc3-c3nc(C)co3)n2)cc(OC)c1OC [Example 290] , please?
< 5.70

Could you do the same for COc1cc(Nc2ncc(Br)c(Oc3ccccc3C(=O)NC3CC3)n2)cc(OC)c1OC [Example 270] , please?
5.70 to 6.70

Could you do the same for COc1cc(Nc2ncc(Br)c(Oc3ccccc3N)n2)cc(OC)c1OC [Example 254b] , please?
> 6.70

Could you do the same for FC(F)(F)c1cnc(Nc2cccc3ncccc23)nc1NC1CC1 [Example 278] , please?
< 5.70

Could you do the same for O=c1[nH]c2ccc(Nc3ncc(Br)c(Nc4ccc5[nH]c(=O)[nH]c5c4)n3)cc2[nH]1 [Example 233] , please?
> 6.70
